- measurement.description: in vivo
- run.parameters: male, SD, rat, po
Hi there, I'd appreciate the recorded AUC(0-t) for every entry that follows.
One number for each entry, in ng·h/mL.

[
  {
    "molecule": "C[C@@H]1O[C@@H](OC[C@H]2O[C@@H](OCCc3ccc(O)c(O)c3)[C@H](O)[C@@H](O)[C@@H]2OC(=O)/C=C/c2ccc(O)c(O)c2)[C@H](O)[C@H](O)[C@H]1O [FTA, forsythoside A]",
    "AUC(0-t), ng·h/mL": 28.5
  }
]

API: the following record is the query input.
Provide AUC(0-t) value for the following molecule: O=C(/C=C/c1ccc(O)c(O)c1)O[C@@H]1C[C@](O)(C(=O)O)C[C@@H](O)[C@H]1O [CHA, Chlorogenic acid]
144
